The entries below come with measured pIC50 values attached.
# experimental_target: recombinant rat GluN1/GluN2C (Rattus norvegicus, UniProt P35439+Q00961)
# Construct: expressed in transfected cells; host or cells: Xenopus laevis oocytes injected with cRNA (GluN1:GluN2 ratio 1:2)
# Sequence (Q00961 20-1237, other chains not shown): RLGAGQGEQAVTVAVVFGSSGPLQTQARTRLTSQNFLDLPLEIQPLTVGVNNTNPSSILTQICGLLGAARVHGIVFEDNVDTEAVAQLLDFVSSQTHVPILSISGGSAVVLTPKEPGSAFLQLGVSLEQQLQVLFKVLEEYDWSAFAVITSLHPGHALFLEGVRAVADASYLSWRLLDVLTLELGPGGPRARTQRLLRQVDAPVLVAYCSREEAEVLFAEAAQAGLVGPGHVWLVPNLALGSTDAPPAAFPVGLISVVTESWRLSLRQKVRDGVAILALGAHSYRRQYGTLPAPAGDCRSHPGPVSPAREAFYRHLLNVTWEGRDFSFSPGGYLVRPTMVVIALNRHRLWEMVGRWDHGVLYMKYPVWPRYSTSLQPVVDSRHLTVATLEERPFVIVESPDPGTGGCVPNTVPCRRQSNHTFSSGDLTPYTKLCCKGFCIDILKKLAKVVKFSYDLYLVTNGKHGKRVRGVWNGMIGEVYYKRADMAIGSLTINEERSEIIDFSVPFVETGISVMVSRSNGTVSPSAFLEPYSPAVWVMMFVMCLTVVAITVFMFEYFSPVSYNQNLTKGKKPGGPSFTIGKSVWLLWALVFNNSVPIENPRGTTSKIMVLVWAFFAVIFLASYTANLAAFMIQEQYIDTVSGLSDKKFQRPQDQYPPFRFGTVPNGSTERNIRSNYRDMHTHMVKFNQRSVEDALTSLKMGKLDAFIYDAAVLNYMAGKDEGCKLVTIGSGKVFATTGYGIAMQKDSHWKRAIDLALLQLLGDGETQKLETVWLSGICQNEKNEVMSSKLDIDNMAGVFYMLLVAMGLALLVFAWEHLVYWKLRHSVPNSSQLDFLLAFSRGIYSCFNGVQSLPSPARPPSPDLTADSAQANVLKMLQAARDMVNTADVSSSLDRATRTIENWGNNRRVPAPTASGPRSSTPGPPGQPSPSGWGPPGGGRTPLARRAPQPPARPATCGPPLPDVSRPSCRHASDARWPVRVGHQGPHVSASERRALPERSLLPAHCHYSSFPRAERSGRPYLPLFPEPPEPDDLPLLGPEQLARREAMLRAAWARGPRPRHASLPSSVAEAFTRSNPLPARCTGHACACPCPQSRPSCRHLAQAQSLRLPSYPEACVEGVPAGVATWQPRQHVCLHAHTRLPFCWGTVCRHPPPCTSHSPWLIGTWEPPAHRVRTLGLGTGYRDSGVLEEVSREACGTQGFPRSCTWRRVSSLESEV
# run_description: Two-electrode voltage-clamp recordings in Xenopus laevis oocytes, GluN2C
# Assay type: cell-based
# condition_notes: mean IC50 with bottom and top 95% confidence interval; read-out: Avg. GluN2C IC50 (95% CI)
# Method: All target compounds were evaluated for activity by the Traynelis laboratory at Emory University using two-electrode voltage-clamp recordings performed in Xenopus laevis oocytes expressing recombinant GluN2A-D subunits (Table 1). […] Two ester compounds 997-65 and 997-66 also performed no inhibition at GluN2A to GluN2D receptors. […]
pIC50: −log10 of the molar value.

molecule: O=C(O)CC(F)(F)C(=O)N1N=C(c2c(-c3ccc(Cl)cc3)c3ccccc3[nH]c2=O)C[C@@H]1c1ccc(Cl)cc1 [(+)-997-74]
pIC50: 5.51
//
molecule: O=C(O)CC(F)(F)C(=O)N1N=C(c2c(-c3ccc(Cl)cc3)c3ccccc3[nH]c2=O)C[C@H]1c1ccc(Cl)cc1 [(−)-997-74]
pIC50: 6.96
//
molecule: Cc1ccc2[nH]c(=O)c(C3=NN(C(=O)C(F)(F)CC(=O)O)C(c4ccc(Cl)cc4)C3)c(-c3ccc(Cl)cc3)c2c1 (single isomer, unassigned; (+)) [(+)-997-90]
pIC50: 5.68
//
molecule: O=C(CC(F)(F)CO)N1N=C(c2c(-c3ccc(Cl)cc3)c3ccccc3[nH]c2=O)CC1c1ccc(Cl)cc1 (single isomer, unassigned; (-)) [(−)-997-67]
pIC50: 5.57
//
molecule: Cc1ccc2[nH]c(=O)c(C3=NN(C(=O)C(F)(F)CC(=O)O)C(c4ccc(Cl)cc4)C3)c(-c3ccc(Cl)cc3)c2c1 (single isomer, unassigned; (-)) [(−)-997-90]
pIC50: 6.68

----------
# experimental_target: recombinant rat GluN1/GluN2D (Rattus norvegicus, UniProt Q62645)
# Construct: expressed in transfected cells; host or cells: Xenopus laevis oocytes injected with cRNA (GluN1:GluN2 ratio 1:2)
# Sequence (Q62645 28-1323, other chains not shown): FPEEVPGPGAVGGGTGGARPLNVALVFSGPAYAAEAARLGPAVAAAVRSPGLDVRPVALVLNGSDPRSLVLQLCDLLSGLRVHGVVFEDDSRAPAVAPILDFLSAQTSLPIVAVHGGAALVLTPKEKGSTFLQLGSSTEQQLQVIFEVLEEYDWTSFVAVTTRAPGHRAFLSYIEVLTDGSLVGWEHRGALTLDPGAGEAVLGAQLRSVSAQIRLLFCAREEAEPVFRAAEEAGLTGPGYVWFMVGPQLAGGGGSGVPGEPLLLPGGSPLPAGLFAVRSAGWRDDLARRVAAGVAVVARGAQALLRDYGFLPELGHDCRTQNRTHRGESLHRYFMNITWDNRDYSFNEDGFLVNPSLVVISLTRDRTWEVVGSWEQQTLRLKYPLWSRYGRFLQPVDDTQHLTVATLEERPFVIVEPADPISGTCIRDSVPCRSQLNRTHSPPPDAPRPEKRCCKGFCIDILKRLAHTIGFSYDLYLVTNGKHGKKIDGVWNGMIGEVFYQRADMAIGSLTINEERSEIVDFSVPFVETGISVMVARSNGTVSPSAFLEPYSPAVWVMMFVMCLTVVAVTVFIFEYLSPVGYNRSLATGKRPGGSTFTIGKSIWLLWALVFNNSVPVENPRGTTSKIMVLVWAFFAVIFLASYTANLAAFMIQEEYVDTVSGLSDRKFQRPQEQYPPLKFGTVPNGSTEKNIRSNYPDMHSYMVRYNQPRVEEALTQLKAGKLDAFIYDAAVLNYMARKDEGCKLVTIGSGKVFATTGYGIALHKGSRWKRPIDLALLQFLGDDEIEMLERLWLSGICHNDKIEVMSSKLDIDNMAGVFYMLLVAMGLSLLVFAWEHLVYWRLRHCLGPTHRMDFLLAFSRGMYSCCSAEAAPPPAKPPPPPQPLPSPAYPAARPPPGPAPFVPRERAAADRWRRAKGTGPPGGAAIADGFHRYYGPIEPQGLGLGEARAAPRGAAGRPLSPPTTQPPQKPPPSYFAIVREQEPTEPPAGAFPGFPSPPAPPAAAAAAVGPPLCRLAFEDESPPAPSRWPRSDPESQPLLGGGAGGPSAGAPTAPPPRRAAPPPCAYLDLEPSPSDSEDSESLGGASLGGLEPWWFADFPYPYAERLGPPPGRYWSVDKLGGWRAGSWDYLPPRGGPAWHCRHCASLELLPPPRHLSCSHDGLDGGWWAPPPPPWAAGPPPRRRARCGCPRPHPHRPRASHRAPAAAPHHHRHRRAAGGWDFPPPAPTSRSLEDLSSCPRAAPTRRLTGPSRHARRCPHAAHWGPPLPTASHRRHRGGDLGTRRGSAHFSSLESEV
# run_description: Two-electrode voltage-clamp recordings in Xenopus laevis oocytes, GluN2D
# Type: cell-based
# condition_notes: ratio of IC50 values

compound: O=C(CC(F)(F)C(=O)O)N1N=C(c2c(-c3ccc(Cl)cc3)c3ccccc3[nH]c2=O)CC1c1ccc(Cl)cc1 (stereo not shown) [997-114]
2A IC50 / 2D IC50: 33

compound: O=C(CC(F)(F)C(=O)O)N1N=C(c2c(-c3cccc(F)c3)c3ccccc3[nH]c2=O)CC1c1ccc(Cl)cc1 (stereo not shown) [997-69]
2A IC50 / 2D IC50: 56

compound: O=C(O)CC(F)(F)C(=O)N1N=C(c2ccccc2-c2ccc(Cl)cc2)CC1c1ccc(Cl)cc1 (stereo not shown) [997-95]
2A IC50 / 2D IC50: 5

compound: O=C(O)CC(F)(F)C(=O)N1N=C(c2c(-c3ccc(Cl)cc3)c3ccccc3[nH]c2=O)CC1c1ccc(Cl)cc1 (stereo not shown) [997-74]
2A IC50 / 2D IC50: 220

compound: NC(=O)CC(F)(F)C(=O)N1N=C(c2c(-c3ccc(Cl)cc3)c3ccccc3[nH]c2=O)CC1c1ccc(Cl)cc1 (stereo not shown) [997-96]
2A IC50 / 2D IC50: 150

compound: O=C(O)CCC(=O)N1N=C(c2c(-c3ccc(Cl)cc3)c3ccccc3[nH]c2=S)CC1c1ccc(Cl)cc1 (stereo not shown) [997-97]
2A IC50 / 2D IC50: 46

compound: O=C(O)/C=C(/F)C(=O)N1N=C(c2c(-c3ccc(Cl)cc3)c3ccccc3[nH]c2=O)CC1c1ccc(Cl)cc1 (stereo not shown) [997-101]
2A IC50 / 2D IC50: 50

----------
# experimental_target: recombinant rat GluN1/GluN2D (Rattus norvegicus, UniProt P35439+Q62645)
# Construct: expressed in transfected cells; host or cells: Xenopus laevis oocytes injected with cRNA (GluN1:GluN2 ratio 1:2)
# Sequence (Q62645 28-1323, other chains not shown): as above
# run_description: Two-electrode voltage-clamp recordings in Xenopus laevis oocytes, GluN2D
# Type: cell-based
# condition_notes: oocytes, 100 μM glutamate and 30 μM glycine; read-out: GluN2D IC50
pIC50: −log10 of the molar value.
Please mark T if the recorded pIC50 is equal to or greater than 6, and F if it falls below.

compound: O=C(N1N=C(c2c(-c3ccc(Cl)cc3)c3ccccc3[nH]c2=O)CC1c1ccc(Cl)cc1)C(F)(F)CCO (stereo not shown) [997-75]
group_label: F
//
compound: O=c1[nH]c2ccccc2c(-c2ccc(Cl)cc2)c1C1=NNC(c2ccncc2)C1 (stereo not shown) [997-78]
group_label: F
//
compound: NC(=O)C(F)(F)CC(=O)N1N=C(c2c(-c3ccc(Cl)cc3)c3ccccc3[nH]c2=O)CC1c1ccc(Cl)cc1 (stereo not shown) [997-115]
group_label: T
//
compound: O=C(O)CCC(=O)N1N=C(c2ccccc2-c2ccc(Cl)cc2)CC1c1ccc(Cl)cc1 (stereo not shown) [997-99]
group_label: F
//
compound: O=C(O)CC(F)(F)C(=O)N1N=C(c2ccccc2-c2ccc(Cl)cc2)CC1c1ccc(Cl)cc1 (stereo not shown) [997-95]
group_label: F
//
compound: Cc1ccc2[nH]c(=O)c(C3=NN(C(=O)C(F)(F)CC(=O)O)C(c4ccc(Cl)cc4)C3)c(-c3ccc(Cl)cc3)c2c1 (single isomer, unassigned; (+)) [(+)-997-90]
group_label: T

----------
# experimental_target: recombinant rat GluN1/GluN2D (Rattus norvegicus, UniProt P35439+Q62645)
# Construct: expressed in transfected cells; host or cells: Xenopus laevis oocytes injected with cRNA (GluN1:GluN2 ratio 1:2)
# run_description: Two-electrode voltage-clamp recordings in Xenopus laevis oocytes, GluN2D
# Assay type: cell-based
# condition_notes: mean IC50 with bottom and top 95% confidence interval; read-out: Avg. GluN2D IC50 (95% CI)
observed_property: log10 of IC50 (log10 of the value in nM)

compound: Cc1ccc2[nH]c(=O)c(C3=NN(C(=O)C(F)(F)CC(=O)O)C(c4ccc(Cl)cc4)C3)c(-c3ccc(Cl)cc3)c2c1 (single isomer, unassigned; (+)) [(+)-997-90]
experimental_target: recombinant rat GluN1/GluN2D (Rattus norvegicus, UniProt P35439+Q62645)
log10 of IC50: 2.82
//
compound: O=C(O)CC(F)(F)C(=O)N1N=C(c2c(-c3ccc(Cl)cc3)c3ccccc3[nH]c2=O)C[C@@H]1c1ccc(Cl)cc1 [(+)-997-74]
experimental_target: recombinant rat GluN1/GluN2D (Rattus norvegicus, UniProt P35439+Q62645)
log10 of IC50: 3.35
//
compound: O=C(O)CC(F)(F)C(=O)N1N=C(c2c(-c3ccc(Cl)cc3)c3ccccc3[nH]c2=O)C[C@H]1c1ccc(Cl)cc1 [(−)-997-74]
experimental_target: recombinant rat GluN1/GluN2D (Rattus norvegicus, UniProt P35439+Q62645)
log10 of IC50: 1.74
//
compound: O=C(CC(F)(F)CO)N1N=C(c2c(-c3ccc(Cl)cc3)c3ccccc3[nH]c2=O)CC1c1ccc(Cl)cc1 (single isomer, unassigned; (+)) [(+)-997-67]
experimental_target: recombinant rat GluN1/GluN2D (Rattus norvegicus, UniProt P35439+Q62645)
log10 of IC50: 3.85
//
compound: O=C(CC(F)(F)CO)N1N=C(c2c(-c3ccc(Cl)cc3)c3ccccc3[nH]c2=O)CC1c1ccc(Cl)cc1 (single isomer, unassigned; (-)) [(−)-997-67]
experimental_target: recombinant rat GluN1/GluN2D (Rattus norvegicus, UniProt P35439+Q62645)
log10 of IC50: 2.99
//
compound: Cc1ccc2[nH]c(=O)c(C3=NN(C(=O)C(F)(F)CC(=O)O)C(c4ccc(Cl)cc4)C3)c(-c3ccc(Cl)cc3)c2c1 (single isomer, unassigned; (-)) [(−)-997-90]
experimental_target: recombinant rat GluN1/GluN2D (Rattus norvegicus, UniProt P35439+Q62645)
log10 of IC50: 2.11

----------
Below is a list of entries, each paired with its recorded IC50 value.
# experimental_target: recombinant rat GluN1/GluN2D (Rattus norvegicus, UniProt P35439+Q62645)
# Construct: expressed in transfected cells; host or cells: Xenopus laevis oocytes injected with cRNA (GluN1:GluN2 ratio 1:2)
# run_description: Two-electrode voltage-clamp recordings in Xenopus laevis oocytes, GluN2D
# Type: cell-based
# condition_notes: oocytes, 100 μM glutamate and 30 μM glycine; read-out: GluN2D IC50
observed_property: IC50 (nM)

compound: O=C(O)CC(F)(F)C(=O)N1N=C(c2ccccc2-c2cc(Cl)cc(Cl)c2)CC1c1ccc(Cl)cc1 (stereo not shown)
observed_property: IC50
observed_value: 4670
--
compound: O=C(O)CC(F)(F)C(=O)N1N=C(c2c(-c3ccc(Cl)cc3)c3ccccc3[nH]c2=O)CC1c1ccc(F)cc1 (stereo not shown)
observed_property: IC50
observed_value: 810
--
compound: O=C(O)CC(F)(F)C(=O)N1N=C(c2c(-c3ccc(Cl)cc3)c3ccccc3[nH]c2=O)C[C@@H]1c1ccc(Cl)cc1 [(+)-997-74]
observed_property: IC50
observed_value: 3900
--
compound: O=C(O)CCC(=O)N1N=C(c2c(-c3ccc(Cl)cc3)c3ccccc3[nH]c2=O)CC1c1ccc(C(F)(F)F)cc1 (stereo not shown)
observed_property: IC50
observed_value: 200
--
compound: O=C(O)CCC(=O)N1N=C(c2c(-c3ccc(F)cc3)c3ccccc3[nH]c2=O)CC1c1ccc(F)cc1 (stereo not shown)
observed_property: IC50
observed_value: 5100
--
compound: O=C(O)CCC(=O)N1N=C(c2c(-c3ccc(Cl)s3)c3ccccc3[nH]c2=O)CC1c1ccc(Cl)cc1 (stereo not shown)
observed_property: IC50
observed_value: 400
--
compound: Cc1ccc2[nH]c(=O)c(C3=NN(C(=O)CC(F)(F)CO)C(c4ccc(Cl)cc4)C3)c(-c3ccc(Cl)cc3)c2c1 (stereo not shown)
observed_property: IC50
observed_value: 4400
--
compound: O=C(O)CC(F)(F)C(=O)N1N=C(c2ccccc2-c2ccc(F)cc2F)CC1c1ccc(Cl)cc1 (stereo not shown)
observed_property: IC50
observed_value: 12300
--
compound: O=C(O)CC(F)(F)C(=O)N1N=C(c2ccccc2-c2ccc(C(F)(F)F)cc2)CC1c1ccc(Cl)cc1 (stereo not shown)
observed_property: IC50
observed_value: 3570
--
compound: O=C(O)CC(F)(F)C(=O)N1N=C(c2c(-c3ccc(Cl)cc3)c3ccccc3[nH]c2=O)CC1c1ccc(C(F)(F)F)cc1 (stereo not shown)
observed_property: IC50
observed_value: 80
--
compound: O=C(O)CCC(=O)N1N=C(c2c(-c3ccc(Cl)cc3)c3ccccc3[nH]c2=O)CC1c1ccc(Cl)s1 (stereo not shown)
observed_property: IC50
observed_value: 800
--
compound: NC(=O)CC(F)(F)C(=O)N1N=C(c2c(-c3ccc(Cl)cc3)c3ccccc3[nH]c2=O)CC1c1ccc(Cl)cc1 (stereo not shown)
observed_property: IC50
observed_value: 200
--
compound: O=C(CC(F)(F)CO)N1N=C(c2c(-c3ccc(Cl)cc3)c3ccccc3[nH]c2=O)CC1c1ccc(Cl)cc1 (single isomer, unassigned; (-)) [(−)-997-67]
observed_property: IC50
observed_value: 620
